- MEASURED TARGET: T1, cynomolgus IL-18BP (cynomolgus monkey)
- T1 construct: Generated in-house; also called cyIL-18BP; cyno IL-18BP
- T1 chain: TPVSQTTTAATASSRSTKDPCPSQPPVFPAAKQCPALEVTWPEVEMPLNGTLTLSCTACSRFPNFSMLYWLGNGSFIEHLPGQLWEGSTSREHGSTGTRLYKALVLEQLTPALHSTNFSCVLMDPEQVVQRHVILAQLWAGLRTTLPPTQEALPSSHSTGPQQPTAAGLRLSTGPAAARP
- ASSAY METHOD TEXT: ratio of BLI KDs, cyno against human IL-18BP
Cyno/human values for the binders below.

- BINDER: "SA310a (antibody, human IgG1, V domains shown, humanized; human IgG1 (suffix a), kappa) VH: QVQLQESGPGLVKPSQTLSLTCTVSGYSITSDYNAHWIRQPPGKGLEWIGYIHYSGSTMYNPSLKSRVTISRDTSKNQFSLKLSSVTAADTAVYYCARNYGSIYVNYFDYWGQGTLVTVSS VL: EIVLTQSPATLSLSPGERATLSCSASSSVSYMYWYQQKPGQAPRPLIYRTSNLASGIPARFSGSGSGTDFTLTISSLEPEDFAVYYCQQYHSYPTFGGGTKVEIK"
  VALUE UNIT: "ratio"
  Cyno/human: 0.16
- BINDER: "SA309a (antibody, human IgG1, V domains shown, humanized; human IgG1 (suffix a), kappa) VH: QVQLQESGPGLVKPSQTLSLTCTVSGYSITSDYNAHWIRQPPGKGLEWIGYIHYSGQTNYNPSLKSRVTISRDTSKNQFSLKLSSVTAADTAVYYCARNYGSIYVNYFDYWGQGTLVTVSS VL: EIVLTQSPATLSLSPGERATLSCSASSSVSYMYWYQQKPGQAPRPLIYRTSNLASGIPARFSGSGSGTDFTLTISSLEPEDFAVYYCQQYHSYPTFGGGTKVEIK"
  VALUE UNIT: "ratio"
  Cyno/human: 0.39
- BINDER: "SA44a (antibody, human IgG1, V domains shown, murine variable regions on human IgG1 kappa constant regions) VH: DVQLQESGPDLVKPSQSLSLTCTVTGYSITSDYNCHWIRQFPGNKLEWMGYIHYSGSTNYNPSLKSRISITRDTSKNQFFLQLNSVTAEDTATYYCARNYGSIYVNYFDYWGQGTTLTVSS VL: QIVLTQSPAIMSASPGEKVTISCSASSSVSYMYWYQQEPGSSPKPWIYRTSNLASGVPPRFSGSGSGTSYSLTISSMEAEDAATYFCQQYHSYPTFGGGTKLEIK"
  VALUE UNIT: "ratio"
  Cyno/human: 0.76
